Consider the following binders; for each one, report its Kd.
- measurementTarget: T1, monkey C5-mmh (monkey, UniProt P01031 19-1676 (human entry), limits assumed)
- T1 construct: Expressed with a C-terminal myc-myc-hexahistidine tag
- T1 chain: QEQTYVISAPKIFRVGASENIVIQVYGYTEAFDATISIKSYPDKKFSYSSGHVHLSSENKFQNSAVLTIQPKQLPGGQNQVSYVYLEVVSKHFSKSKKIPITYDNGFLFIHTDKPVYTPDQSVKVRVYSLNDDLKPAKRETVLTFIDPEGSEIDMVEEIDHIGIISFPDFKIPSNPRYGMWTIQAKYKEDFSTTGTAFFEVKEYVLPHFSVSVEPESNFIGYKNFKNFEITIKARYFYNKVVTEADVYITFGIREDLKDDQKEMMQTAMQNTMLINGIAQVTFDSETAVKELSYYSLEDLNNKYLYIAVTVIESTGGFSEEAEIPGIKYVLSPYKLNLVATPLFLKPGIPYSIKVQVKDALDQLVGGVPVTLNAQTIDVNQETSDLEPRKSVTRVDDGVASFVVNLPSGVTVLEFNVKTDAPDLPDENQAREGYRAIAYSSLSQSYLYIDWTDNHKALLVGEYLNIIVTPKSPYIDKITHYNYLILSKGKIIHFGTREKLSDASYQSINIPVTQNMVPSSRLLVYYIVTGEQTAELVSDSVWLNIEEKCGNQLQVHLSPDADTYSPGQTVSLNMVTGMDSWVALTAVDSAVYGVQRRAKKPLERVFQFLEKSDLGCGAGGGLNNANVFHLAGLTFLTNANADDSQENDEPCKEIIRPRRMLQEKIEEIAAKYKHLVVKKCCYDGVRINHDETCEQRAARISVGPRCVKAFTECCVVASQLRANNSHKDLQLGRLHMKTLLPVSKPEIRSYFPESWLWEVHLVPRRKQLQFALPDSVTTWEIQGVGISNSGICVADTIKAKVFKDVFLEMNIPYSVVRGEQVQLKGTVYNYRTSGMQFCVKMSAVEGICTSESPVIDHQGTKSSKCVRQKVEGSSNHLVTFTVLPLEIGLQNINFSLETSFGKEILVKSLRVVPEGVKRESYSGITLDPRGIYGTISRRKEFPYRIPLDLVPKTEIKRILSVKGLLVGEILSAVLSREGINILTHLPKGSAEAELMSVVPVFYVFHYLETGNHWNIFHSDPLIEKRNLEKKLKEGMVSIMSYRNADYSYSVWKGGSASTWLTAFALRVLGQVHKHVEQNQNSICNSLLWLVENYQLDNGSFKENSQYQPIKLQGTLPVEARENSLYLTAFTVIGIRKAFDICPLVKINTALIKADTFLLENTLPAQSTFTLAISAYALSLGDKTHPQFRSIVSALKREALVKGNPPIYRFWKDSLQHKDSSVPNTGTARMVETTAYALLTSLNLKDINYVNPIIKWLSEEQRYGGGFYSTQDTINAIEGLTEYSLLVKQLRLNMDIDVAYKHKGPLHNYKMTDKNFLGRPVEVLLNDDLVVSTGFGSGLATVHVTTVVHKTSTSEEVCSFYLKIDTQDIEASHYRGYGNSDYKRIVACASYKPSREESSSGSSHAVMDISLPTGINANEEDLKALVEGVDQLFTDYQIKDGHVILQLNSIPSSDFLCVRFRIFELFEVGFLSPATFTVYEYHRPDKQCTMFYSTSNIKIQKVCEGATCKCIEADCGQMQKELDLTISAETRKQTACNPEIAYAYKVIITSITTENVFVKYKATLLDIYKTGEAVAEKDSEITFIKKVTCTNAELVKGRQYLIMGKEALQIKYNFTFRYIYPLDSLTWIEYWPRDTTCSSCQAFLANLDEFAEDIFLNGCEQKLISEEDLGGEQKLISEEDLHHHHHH
- experimentDescription: SPR, mAb captured by anti-hFc, 25C
Give bare numbers, in nM.

binder	property	unitString	observedValue
H4H12166P6 (antibody, human IgG4, V domains shown, human IgG4 Fc with S108P hinge mutation) VH: QVQLQESGPGLVKPSETLSLTCTVSGDSVSSSYWTWIRQPPGKGLEWIGYIYYSGSSNYNPSLKSRATISVDTSKNQFSLKLSSVTAADTAVYYCAREGNVDHTMIFDYWGQGTLVTVSS VL: AIQMTQSPSSLSASVGDRVTITCRASQGIRNDLGWYQQKPGKAPKLLIYAASSLQSGVPSRFAGRGSGTDFTLTISSLQPEDFATYYCLQDFNYPWTFGQGTKVEIK	Kd	nM	11.1
H4H12166P5 (antibody, human IgG4, V domains shown, human IgG4 Fc with S108P hinge mutation) VH: QVQLQESGPGLVKPSETLSLTCTVSGDSVSSSYWTWIRQPPGKGLEWIGYIYYSGSSNYNPSLKSRATISVDTSKNQFSLKLSSVTAADTAVYYCAREGNVDTTMIHDYWGQGTLVTVSS VL: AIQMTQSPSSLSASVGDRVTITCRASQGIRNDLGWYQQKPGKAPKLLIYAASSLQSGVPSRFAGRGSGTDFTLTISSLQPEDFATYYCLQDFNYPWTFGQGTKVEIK	Kd	nM	24

Next up:
Query: Which Kd reading was recorded for the binder H4H12171P (antibody, human IgG4, V domains shown) VH: EVQLVESGGGVVRPGGSLRLSCAASGFTFDEYGMTWVRQVPGKGLEWVSGITWNGGFTDYTDSVKGRFTSSRDNAKNSLYLQMNSLRAEDTALYYCARDGYSSSWGAYDIWGQGTMVTVSS VL: DIQMTQSPSSLSASVGDRVTITCRASQSISTYLNWYQQKPGKAPKLLIYAASSLQSGVPLRFSGSGSGTDFTLTISSLQPEDFASYFCQQSYSTPYTFGQGTKLEIK ?
Result: 4.92
